System: SARS-CoV-2 (2019-nCoV/USA-WA1/2020)
Experiment: SARS-CoV-2 antiviral assay
Assay type: cell-based
# reported pEC50; entries follow
Here pEC50 is given on a logarithmic scale as minus log10 of the concentration in mol/L.

> print(dat)
                                   compound  measured.value
1  CCCCCCCCCCCCCCCCCCOCCOP(=O)(O)OC[C@H]1O[C@@](C#N)(c2ccc3c(N)ncnn23)[C@H](O)[C@@H]1O [ODE-P-RVn]            6.72

// pEC50 lookup, key: CCCCCCCCCCCCCCCCOCCCOP(=O)(O)OC[C@H]1O[C@@](C#N)(c2ccc3c(N)ncnn23)[C@H](O)[C@@H]1O [HDP-P-RVn]
6.72

----------
Assay: in vitro
Conditions: human
Overview of recorded CC50 for various molecules

Consider the molecule shown here: CCCCCCCCCCCCCCCCCCOCCOP(=O)(O)OC[C@H]1O[C@@](C#N)(c2ccc3c(N)ncnn23)[C@H](O)[C@@H]1O What is its recorded CC50?
> 100 µM

Reported CC50, molecule N#C[C@@]1(c2ccc3c(N)ncnn23)O[C@H](CO)[C@@H](O)[C@H]1O [RVn, remdesivir nucleoside, reference compound] : ____
> 100 µM

May I ask what CC50 has been recorded for CCCCCCCCCCCCCCCCOCCCOP(=O)(O)OC[C@H]1O[C@@](C#N)(c2ccc3c(N)ncnn23)[C@H](O)[C@@H]1O ?
> 100 µM

----------
Test system: SARS-CoV-2 (2019-nCoV/USA-WA1/2020)
Experiment: SARS-CoV-2 antiviral assay
Assay type: cell-based
Settings: Severe acute respiratory syndrome coronavirus 2, Caco-2, 48 h
measured.attribute: EC90 (nM)
Report the value in nM with no unit label.

Look over these answered cases.
compound	system.name	result.units	EC90
N#C[C@@]1(c2ccc3c(N)ncnn23)O[C@H](CO)[C@@H](O)[C@H]1O [RVn, remdesivir nucleoside, reference compound]	SARS-CoV-2 (2019-nCoV/USA-WA1/2020)	nM	1750
CCCCCCCCCCCCCCCCCCOC[C@H](COP(=O)(O)OC[C@H]1O[C@@](C#N)(c2ccc3c(N)ncnn23)[C@H](O)[C@@H]1O)OCc1ccccc1 [ODBG-P-RVn]	SARS-CoV-2 (2019-nCoV/USA-WA1/2020)	nM	330
CCC(CC)COC(=O)[C@H](C)N[P@](=O)(OC[C@H]1O[C@@](C#N)(c2ccc3c(N)ncnn23)[C@H](O)[C@@H]1O)Oc1ccccc1 [RDV, remdesivir, reference compound]	SARS-CoV-2 (2019-nCoV/USA-WA1/2020)	nM	280

Moving on to the next compound.
Looking for the measured EC90 of CCCCCCCCCCCCCCCCCCOCCOP(=O)(O)OC[C@H]1O[C@@](C#N)(c2ccc3c(N)ncnn23)[C@H](O)[C@@H]1O [ODE-P-RVn] , can you help?
1250

----------
System: SARS-CoV-2 (2019-nCoV/USA-WA1/2020)
Experiment: SARS-CoV-2 antiviral assay
Assay type: cell-based
Details: PSC-human lung cells; […]
measured.attribute: EC50
Provide the measurement as a number trailed by its unit.

Given CCCCCCCCCCCCCCCCCCOCCOP(=O)(O)OC[C@H]1O[C@@](C#N)(c2ccc3c(N)ncnn23)[C@H](O)[C@@H]1O , state its recorded EC50.
0.22 µM

----------
Assay: in vitro
Conditions: human
measured.attribute: CC50 (µM)
Write it as a number; the unit µM goes unstated.

Dear colleague, I am looking for the recorded CC50 of the following compound: CCCCCCCCCCCCCCCCCCOCCOP(=O)(O)OC[C@H]1O[C@@](C#N)(c2ccc3c(N)ncnn23)[C@H](O)[C@@H]1O
98.7

----------
Experiment: Seven-day oral pharmacokinetics and tolerability in Syrian hamsters
Format: in vivo
Conditions: Syrian, hamster, plasma, po
measured.attribute: Tmax
# number then unit; no other words

Give the measured Tmax of CCCCCCCCCCCCCCCCCCOC[C@H](COP(=O)(O)OC[C@H]1O[C@@](C#N)(c2ccc3c(N)ncnn23)[C@H](O)[C@@H]1O)OCc1ccccc1 [ODBG-P-RVn] .
1 h

----------
Assay: in vitro
Settings: human
measured.attribute: CC50

> print(dat)
                                   compound  measured.attribute  measured.value
1  N#C[C@@]1(c2ccc3c(N)ncnn23)O[C@H](CO)[C@@H](O)[C@H]1O [RVn, remdesivir nucleoside, reference compound]                CC50        > 100 µM

We next turn to a different compound, shown below.
I would be grateful if you could share the reported CC50 for CCCCCCCCCCCCCCCCCCOCCOP(=O)(O)OC[C@H]1O[C@@](C#N)(c2ccc3c(N)ncnn23)[C@H](O)[C@@H]1O .
> 100 µM

----------
Test system: SARS-CoV-2 (2019-nCoV/USA-WA1/2020)
Experiment: SARS-CoV-2 antiviral assay
Format: cell-based
Conditions: Severe acute respiratory syndrome coronavirus 2, Calu-3, 48 h
measured.attribute: EC90 (µM)
Give your result in µM as a bare value.

molecule	system.name	measured.attribute	result.units	measured.value
CCCCCCCCCCCCCCCCCCOC[C@H](COP(=O)(O)OC[C@H]1O[C@@](C#N)(c2ccc3c(N)ncnn23)[C@H](O)[C@@H]1O)OCc1ccccc1 [ODBG-P-RVn]	SARS-CoV-2 (2019-nCoV/USA-WA1/2020)	EC90	µM	0.33

Requested read-out: EC90. Entry: CCC(CC)COC(=O)[C@H](C)N[P@](=O)(OC[C@H]1O[C@@](C#N)(c2ccc3c(N)ncnn23)[C@H](O)[C@@H]1O)Oc1ccccc1 [RDV, remdesivir, reference compound]
0.31

# EC90 lookup, item N#C[C@@]1(c2ccc3c(N)ncnn23)O[C@H](CO)[C@@H](O)[C@H]1O [RVn, remdesivir nucleoside, reference compound]
0.18

EC90 lookup needed for CCCCCCCCCCCCCCCCCCOCCOP(=O)(O)OC[C@H]1O[C@@](C#N)(c2ccc3c(N)ncnn23)[C@H](O)[C@@H]1O [ODE-P-RVn] , thanks.
0.64

----------
Tested on: SARS-CoV-2 (2019-nCoV/USA-WA1/2020)
Test: SARS-CoV-2 antiviral assay
Format: cell-based
Settings: Huh7.5 cells; CC50/EC50
measured.attribute: Selectivity index

Completed entries (count: 3):
> print(dat)
                                   compound                          system.name  measured.value
1  CCCCCCCCCCCCCCCCCCOCCOP(=O)(O)OC[C@H]1O[C@@](C#N)(c2ccc3c(N)ncnn23)[C@H](O)[C@@H]1O  SARS-CoV-2 (2019-nCoV/USA-WA1/2020)            >526
2  CCCCCCCCCCCCCCCCCCOC[C@H](COP(=O)(O)OC[C@H]1O[C@@](C#N)(c2ccc3c(N)ncnn23)[C@H](O)[C@@H]1O)OCc1ccccc1  SARS-CoV-2 (2019-nCoV/USA-WA1/2020)             449
3  CCCCCCCCCCCCCCCCOCCCOP(=O)(O)OC[C@H]1O[C@@](C#N)(c2ccc3c(N)ncnn23)[C@H](O)[C@@H]1O  SARS-CoV-2 (2019-nCoV/USA-WA1/2020)            >526

Let us examine a further case.
What does the data say about its Selectivity index? Entry: N#C[C@@]1(c2ccc3c(N)ncnn23)O[C@H](CO)[C@@H](O)[C@H]1O [RVn, remdesivir nucleoside, reference compound]
>312

----------
Test system: SARS-CoV-2 (2019-nCoV/USA-WA1/2020)
Experiment: SARS-CoV-2 antiviral assay
Assay type: cell-based
Details: Severe acute respiratory syndrome coronavirus 2, Caco-2, 48 h
The molecules listed here are annotated with their pEC50.
FYI, pEC50 means -log10 of a concentration in mol per litre.

molecule	system.name	measured.value
CCCCCCCCCCCCCCCCCCOCCOP(=O)(O)OC[C@H]1O[C@@](C#N)(c2ccc3c(N)ncnn23)[C@H](O)[C@@H]1O [ODE-P-RVn]	SARS-CoV-2 (2019-nCoV/USA-WA1/2020)	6.11
CCC(CC)COC(=O)[C@H](C)N[P@](=O)(OC[C@H]1O[C@@](C#N)(c2ccc3c(N)ncnn23)[C@H](O)[C@@H]1O)Oc1ccccc1 [RDV, remdesivir, reference compound]	SARS-CoV-2 (2019-nCoV/USA-WA1/2020)	6.77
N#C[C@@]1(c2ccc3c(N)ncnn23)O[C@H](CO)[C@@H](O)[C@H]1O [RVn, remdesivir nucleoside, reference compound]	SARS-CoV-2 (2019-nCoV/USA-WA1/2020)	6.02

We now examine a further molecule.
# value lookup — system SARS-CoV-2 (2019-nCoV/USA-WA1/2020), readout pEC50, item CCCCCCCCCCCCCCCCCCOC[C@H](COP(=O)(O)OC[C@H]1O[C@@](C#N)(c2ccc3c(N)ncnn23)[C@H](O)[C@@H]1O)OCc1ccccc1 [ODBG-P-RVn]
6.52
